Molecular target: HDAC3 (Homo sapiens)
Sequence (O15379 whole entry): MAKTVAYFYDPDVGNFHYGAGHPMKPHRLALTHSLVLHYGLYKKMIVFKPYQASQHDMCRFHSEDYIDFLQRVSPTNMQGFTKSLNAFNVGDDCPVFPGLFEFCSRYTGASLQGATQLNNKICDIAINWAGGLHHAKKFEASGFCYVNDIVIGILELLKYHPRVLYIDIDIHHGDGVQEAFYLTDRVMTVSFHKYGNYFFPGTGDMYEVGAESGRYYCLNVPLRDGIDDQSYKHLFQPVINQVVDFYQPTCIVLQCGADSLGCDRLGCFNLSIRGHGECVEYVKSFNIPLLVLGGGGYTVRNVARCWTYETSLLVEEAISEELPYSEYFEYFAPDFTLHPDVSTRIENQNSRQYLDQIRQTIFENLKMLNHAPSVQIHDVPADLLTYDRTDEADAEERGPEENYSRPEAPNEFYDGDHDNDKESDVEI
Sequence (Q9Y618 whole entry partner): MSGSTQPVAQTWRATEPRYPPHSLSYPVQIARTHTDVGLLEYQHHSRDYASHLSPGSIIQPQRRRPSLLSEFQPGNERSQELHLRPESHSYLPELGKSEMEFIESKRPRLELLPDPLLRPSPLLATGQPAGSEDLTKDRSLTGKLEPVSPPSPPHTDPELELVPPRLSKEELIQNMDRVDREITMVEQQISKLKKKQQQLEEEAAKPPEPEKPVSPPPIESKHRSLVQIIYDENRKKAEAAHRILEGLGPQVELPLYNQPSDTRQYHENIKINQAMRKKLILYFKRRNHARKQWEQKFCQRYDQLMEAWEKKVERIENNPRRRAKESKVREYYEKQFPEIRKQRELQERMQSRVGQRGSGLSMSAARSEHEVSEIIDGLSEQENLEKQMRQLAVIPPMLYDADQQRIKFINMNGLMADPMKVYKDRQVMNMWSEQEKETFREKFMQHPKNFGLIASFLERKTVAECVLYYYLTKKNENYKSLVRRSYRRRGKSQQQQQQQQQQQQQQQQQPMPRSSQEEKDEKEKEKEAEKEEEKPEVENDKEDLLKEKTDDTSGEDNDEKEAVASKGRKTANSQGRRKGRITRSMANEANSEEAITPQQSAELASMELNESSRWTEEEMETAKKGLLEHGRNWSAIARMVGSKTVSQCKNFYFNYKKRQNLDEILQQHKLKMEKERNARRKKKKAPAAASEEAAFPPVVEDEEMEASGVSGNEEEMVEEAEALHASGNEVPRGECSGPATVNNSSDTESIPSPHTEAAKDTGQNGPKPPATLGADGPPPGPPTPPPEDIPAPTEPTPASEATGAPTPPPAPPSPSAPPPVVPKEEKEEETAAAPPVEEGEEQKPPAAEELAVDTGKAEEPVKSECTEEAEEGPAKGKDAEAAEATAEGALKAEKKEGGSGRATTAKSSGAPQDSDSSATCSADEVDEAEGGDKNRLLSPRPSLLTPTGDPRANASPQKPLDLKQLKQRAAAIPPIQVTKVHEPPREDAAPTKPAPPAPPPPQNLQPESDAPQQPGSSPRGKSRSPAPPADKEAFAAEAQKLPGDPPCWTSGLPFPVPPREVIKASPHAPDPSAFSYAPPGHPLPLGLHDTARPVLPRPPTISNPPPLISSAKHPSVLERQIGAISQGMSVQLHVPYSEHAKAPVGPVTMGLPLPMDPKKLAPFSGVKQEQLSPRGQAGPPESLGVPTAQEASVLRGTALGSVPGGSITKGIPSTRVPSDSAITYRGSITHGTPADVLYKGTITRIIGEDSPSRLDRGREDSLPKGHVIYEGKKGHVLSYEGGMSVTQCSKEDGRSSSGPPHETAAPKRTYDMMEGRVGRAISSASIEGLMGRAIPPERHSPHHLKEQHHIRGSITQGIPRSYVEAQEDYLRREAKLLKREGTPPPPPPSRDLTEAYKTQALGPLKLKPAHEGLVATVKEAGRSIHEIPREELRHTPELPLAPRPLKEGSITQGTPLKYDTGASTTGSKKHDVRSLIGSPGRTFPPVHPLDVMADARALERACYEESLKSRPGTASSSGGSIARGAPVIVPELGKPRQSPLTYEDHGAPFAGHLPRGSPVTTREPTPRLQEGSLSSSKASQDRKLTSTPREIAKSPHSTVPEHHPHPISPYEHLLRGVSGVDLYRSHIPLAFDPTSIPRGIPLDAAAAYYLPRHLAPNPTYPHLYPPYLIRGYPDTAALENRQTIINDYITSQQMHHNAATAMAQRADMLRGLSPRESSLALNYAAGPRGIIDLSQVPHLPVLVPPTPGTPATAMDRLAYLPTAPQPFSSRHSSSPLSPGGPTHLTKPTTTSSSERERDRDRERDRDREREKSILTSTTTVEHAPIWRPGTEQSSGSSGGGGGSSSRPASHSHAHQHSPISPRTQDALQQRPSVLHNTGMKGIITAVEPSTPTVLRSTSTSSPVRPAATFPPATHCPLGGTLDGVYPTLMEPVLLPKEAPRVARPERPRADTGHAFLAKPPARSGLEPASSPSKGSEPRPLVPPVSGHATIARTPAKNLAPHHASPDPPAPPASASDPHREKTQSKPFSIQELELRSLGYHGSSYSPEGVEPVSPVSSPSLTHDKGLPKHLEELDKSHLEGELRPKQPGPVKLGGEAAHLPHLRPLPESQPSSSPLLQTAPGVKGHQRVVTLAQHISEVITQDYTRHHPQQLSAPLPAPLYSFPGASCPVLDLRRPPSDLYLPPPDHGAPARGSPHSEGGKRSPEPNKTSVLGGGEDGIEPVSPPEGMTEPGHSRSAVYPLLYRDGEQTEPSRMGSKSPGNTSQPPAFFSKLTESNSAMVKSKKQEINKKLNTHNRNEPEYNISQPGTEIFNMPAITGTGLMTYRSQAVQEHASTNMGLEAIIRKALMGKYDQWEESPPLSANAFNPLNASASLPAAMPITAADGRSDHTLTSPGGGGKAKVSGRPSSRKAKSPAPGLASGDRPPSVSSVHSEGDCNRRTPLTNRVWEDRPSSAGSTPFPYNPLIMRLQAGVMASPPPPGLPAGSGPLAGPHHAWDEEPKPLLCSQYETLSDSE
Assay: ELISA-based HDAC activity assay, HDAC3
Conditions: read-out: IC50 values (nM) HDAC3
READOUT: IC50 (nM)
Just the number please, in nM, no unit attached.

COMPOUND: O=C(CC[C@H](CCCC(=O)Nc1ccccc1)Cc1ccccc1)NO [(S)-1f]
READOUT: IC50
RECORDED_NUMBER: 37000

Next, consider the following compound.
// query Which IC50 is reported for this compound? O=C(CC[C@@H](CCCC(=O)Nc1ccccc1)Cc1ccccc1)NO [(R)-1f]
// result 27000

----------
Target: HDAC6 (Homo sapiens)
Sequence (Q9UBN7 whole entry): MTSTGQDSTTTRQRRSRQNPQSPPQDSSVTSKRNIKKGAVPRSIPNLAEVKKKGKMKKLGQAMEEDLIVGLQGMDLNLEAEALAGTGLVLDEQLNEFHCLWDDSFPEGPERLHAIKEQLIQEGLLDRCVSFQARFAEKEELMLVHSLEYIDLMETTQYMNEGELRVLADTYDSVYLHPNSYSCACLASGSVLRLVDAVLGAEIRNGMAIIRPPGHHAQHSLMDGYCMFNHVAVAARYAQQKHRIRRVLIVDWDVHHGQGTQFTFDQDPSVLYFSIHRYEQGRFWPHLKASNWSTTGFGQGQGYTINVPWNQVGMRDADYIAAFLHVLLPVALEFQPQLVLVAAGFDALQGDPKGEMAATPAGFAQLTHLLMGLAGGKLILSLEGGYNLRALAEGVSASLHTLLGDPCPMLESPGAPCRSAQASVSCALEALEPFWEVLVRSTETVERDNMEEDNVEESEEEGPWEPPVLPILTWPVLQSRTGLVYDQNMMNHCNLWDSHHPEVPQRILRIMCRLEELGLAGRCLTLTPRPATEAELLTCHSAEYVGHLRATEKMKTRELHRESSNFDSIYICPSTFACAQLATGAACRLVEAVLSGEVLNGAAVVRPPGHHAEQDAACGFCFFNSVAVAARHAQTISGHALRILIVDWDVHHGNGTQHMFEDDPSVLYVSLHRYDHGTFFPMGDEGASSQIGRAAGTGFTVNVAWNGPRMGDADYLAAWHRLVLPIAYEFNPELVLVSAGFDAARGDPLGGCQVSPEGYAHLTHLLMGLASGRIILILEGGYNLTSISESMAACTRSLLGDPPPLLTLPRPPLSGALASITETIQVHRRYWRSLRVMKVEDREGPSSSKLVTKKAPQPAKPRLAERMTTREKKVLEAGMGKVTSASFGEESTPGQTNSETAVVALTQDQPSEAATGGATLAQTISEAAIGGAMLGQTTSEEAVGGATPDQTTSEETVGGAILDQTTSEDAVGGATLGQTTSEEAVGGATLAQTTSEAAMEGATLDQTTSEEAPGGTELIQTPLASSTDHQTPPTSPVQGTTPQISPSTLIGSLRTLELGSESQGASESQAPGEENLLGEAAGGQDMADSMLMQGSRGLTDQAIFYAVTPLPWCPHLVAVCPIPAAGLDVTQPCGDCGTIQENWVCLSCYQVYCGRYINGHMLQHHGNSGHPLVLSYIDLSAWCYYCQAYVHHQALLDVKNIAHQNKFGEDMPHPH
Assay: ELISA-based HDAC activity assay, HDAC6
Conditions: read-out: Deacetylase activity (%) HDAC6
READOUT: activity at […] (%)
Lab book: enter the figure in %, no units written.

In the examples that follow, each entry is paired with its recorded activity at […].
MOLECULE: CCC(CCCC(=O)Nc1ccccc1)CCC(=O)NO (racemic) [Compound 1b]
activity at […], %: 80
//
MOLECULE: O=C(CCC(CCCC(=O)Nc1ccccc1)Cc1ccccc1)NO (racemic) [Compound 1f]
activity at […], %: 90
//
MOLECULE: CCCCCCC(CCCC(=O)Nc1ccccc1)CCC(=O)NO (racemic) [Compound 1d]
activity at […], %: 77
//
MOLECULE: O=C(CC[C@@H](CCCC(=O)Nc1ccccc1)Cc1ccccc1)NO [(R)-1f]
activity at […], %: 59

Pending molecule:
// query Please give the measured activity at […] for this molecule: CCCCC(CCCC(=O)Nc1ccccc1)CCC(=O)NO (racemic) [Compound 1c]
// result 70
